Target: W1145Y-CFTR (Homo sapiens, UniProt P13569, W1145Y)
Sequence (P13569 whole entry W1145Y): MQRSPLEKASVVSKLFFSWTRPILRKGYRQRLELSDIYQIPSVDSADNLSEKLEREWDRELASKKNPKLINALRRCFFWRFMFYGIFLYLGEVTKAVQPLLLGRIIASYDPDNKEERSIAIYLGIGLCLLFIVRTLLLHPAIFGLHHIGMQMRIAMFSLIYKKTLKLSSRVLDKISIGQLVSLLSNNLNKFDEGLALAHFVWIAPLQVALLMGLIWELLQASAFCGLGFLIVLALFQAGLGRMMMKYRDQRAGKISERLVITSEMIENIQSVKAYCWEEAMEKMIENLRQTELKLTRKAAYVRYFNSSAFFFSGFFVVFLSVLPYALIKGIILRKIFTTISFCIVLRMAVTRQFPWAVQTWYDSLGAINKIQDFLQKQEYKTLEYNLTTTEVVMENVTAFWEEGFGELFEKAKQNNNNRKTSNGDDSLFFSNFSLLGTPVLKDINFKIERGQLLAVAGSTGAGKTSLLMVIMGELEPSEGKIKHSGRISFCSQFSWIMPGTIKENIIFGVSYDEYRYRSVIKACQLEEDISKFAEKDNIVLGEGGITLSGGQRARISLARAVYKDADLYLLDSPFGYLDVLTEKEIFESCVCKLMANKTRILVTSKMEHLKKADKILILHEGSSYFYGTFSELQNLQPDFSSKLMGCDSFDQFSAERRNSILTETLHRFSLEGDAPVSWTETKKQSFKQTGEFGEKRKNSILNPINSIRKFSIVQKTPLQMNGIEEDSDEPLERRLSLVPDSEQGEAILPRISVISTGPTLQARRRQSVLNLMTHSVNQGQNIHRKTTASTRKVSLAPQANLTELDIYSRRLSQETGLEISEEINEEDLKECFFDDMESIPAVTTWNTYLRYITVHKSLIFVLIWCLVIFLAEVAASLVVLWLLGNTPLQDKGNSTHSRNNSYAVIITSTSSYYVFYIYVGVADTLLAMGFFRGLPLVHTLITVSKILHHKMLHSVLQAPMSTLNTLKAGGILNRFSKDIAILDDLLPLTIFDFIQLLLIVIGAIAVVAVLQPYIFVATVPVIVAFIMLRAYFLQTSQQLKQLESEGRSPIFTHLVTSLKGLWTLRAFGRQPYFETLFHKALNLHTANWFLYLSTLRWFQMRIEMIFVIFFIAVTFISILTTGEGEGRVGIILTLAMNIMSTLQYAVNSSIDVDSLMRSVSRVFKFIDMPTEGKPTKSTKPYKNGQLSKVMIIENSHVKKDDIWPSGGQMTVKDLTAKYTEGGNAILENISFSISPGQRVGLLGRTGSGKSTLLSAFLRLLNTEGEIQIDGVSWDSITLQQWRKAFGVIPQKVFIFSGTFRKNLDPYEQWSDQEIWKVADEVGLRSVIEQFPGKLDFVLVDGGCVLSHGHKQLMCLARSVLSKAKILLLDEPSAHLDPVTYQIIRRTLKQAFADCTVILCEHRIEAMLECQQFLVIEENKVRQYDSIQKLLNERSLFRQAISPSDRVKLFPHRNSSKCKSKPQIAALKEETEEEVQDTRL
Experiment: Inside-out patch-clamp inhibition of CFTR current by Inh-172
Conditions: W1145Y
pIC50: −log10 of the molar value.
readout type: pIC50

[
  {
    "chemical string": "O=C(O)c1ccc(/C=C2\\SC(=S)N(c3cccc(C(F)(F)F)c3)C2=O)cc1",
    "target under test": "W1145Y-CFTR (Homo sapiens, UniProt P13569, W1145Y)",
    "readout type": "pIC50",
    "recorded value": 6.06
  }
]
